Provenance of the data: patent US11685732B2

Molecular target: KAT-8 (Homo sapiens (Human))
Sequence (Q9H7Z6 other isoform, or with tags, fused parts or gaps): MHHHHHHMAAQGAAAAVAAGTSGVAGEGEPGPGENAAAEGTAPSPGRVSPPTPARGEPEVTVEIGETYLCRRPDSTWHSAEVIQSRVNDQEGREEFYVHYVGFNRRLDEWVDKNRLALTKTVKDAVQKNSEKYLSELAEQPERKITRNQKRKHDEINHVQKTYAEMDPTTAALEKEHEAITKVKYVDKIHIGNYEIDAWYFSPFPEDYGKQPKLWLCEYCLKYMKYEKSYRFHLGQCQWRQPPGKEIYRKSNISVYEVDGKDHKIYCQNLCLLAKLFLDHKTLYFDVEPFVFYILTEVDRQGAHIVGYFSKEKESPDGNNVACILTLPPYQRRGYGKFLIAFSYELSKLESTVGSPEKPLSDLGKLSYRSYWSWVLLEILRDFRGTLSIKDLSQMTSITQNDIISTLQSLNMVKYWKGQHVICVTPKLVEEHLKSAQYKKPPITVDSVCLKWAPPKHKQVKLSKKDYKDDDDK
Assay: KAT-8 biochemical inhibition assay (SAMDI mass spectrometry)
Kindly supply the reported IC50 values for the records listed here.

Query: # return recorded IC50 for entry CN(CCOc1ccc(S(=O)(=O)NNC(=O)c2cc(-c3cn(C)cn3)cc(Cl)c2F)cc1)C(=O)OC(C)(C)C
Result: > 100 µM

Query: # return recorded IC50 for entry Cn1cnc(-c2cc(Cl)c(F)c(C(=O)NNS(=O)(=O)CC3(C)CCOCC3)c2)c1
Result: 10 to 50 µM

I need IC50 for every entry listed below, if you could help.
1. Cn1cc(-c2cc(Cl)c(F)c(C(=O)NNS(=O)(=O)CC3CCCCC3)c2)cn1
2. Cn1cnc(-c2cc(Cl)c(F)c(C(=O)NNS(=O)(=O)CC3CCN(S(=O)(=O)C4CCC4)C3)c2)c1 (stereo not shown)
3. COCCN(Cc1ccc(OC)cc1)C(=O)N1CCC(CS(=O)(=O)NNC(=O)c2cc(-c3cn(C)cn3)cc(Cl)c2F)C1 (stereo not shown)
4. CN(C(=O)OC(C)(C)C)C1CCC(CS(=O)(=O)NNC(=O)c2cc(-c3cn(C)cn3)cc(Cl)c2F)CC1 (stereo not shown)

Result:
1: > 100 µM; 2: 10 to 50 µM; 3: 10 to 50 µM; 4: 10 to 50 µM

Query: # return recorded IC50 for entry CN1CCN([C@H]2CC[C@H](CS(=O)(=O)NNC(=O)c3cc(-c4cn(C)cn4)cc(Cl)c3F)CC2)C1=O
Result: 10 to 50 µM

----------
Target: KAT-6A (Homo sapiens (Human))
Sequence (Q92794 other isoform, or with tags, fused parts or gaps): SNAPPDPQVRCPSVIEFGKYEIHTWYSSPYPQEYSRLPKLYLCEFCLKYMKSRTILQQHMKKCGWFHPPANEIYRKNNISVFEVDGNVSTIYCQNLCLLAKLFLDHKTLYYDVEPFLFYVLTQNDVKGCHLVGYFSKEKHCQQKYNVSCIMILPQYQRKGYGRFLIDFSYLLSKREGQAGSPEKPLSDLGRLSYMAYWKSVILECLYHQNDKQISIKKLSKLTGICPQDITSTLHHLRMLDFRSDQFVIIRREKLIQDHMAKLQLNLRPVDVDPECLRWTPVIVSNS
Assay: KAT-6A biochemical inhibition assay (SAMDI mass spectrometry)
Conditions: Table 5
pIC50: −log10 of the molar value.
Quantity name: pIC50

Query: # return recorded pIC50 for entry Cc1cccc(-c2cc(C)c(F)c(C(=O)NNS(=O)(=O)CC3CCN(C(=O)OC(C)(C)C)C3)c2)c1 (stereo not shown)
Result: < 4.00

Query: # return recorded pIC50 for entry O=C(NNS(=O)(=O)c1cccc(O)c1)c1cc(-c2ccccc2)cc(F)c1F
Result: ≥ 6.00

Query: # return recorded pIC50 for entry Cc1cccc(-c2cc(Cl)c(F)c(C(=O)NNS(=O)(=O)CC3CCCCN(C(=O)OC(C)(C)C)C3)c2)c1 (stereo not shown)
Result: 4.30 to 5.00

Query: # return recorded pIC50 for entry Cc1cccc(-c2cc(Cl)c(F)c(C(=O)NNS(=O)(=O)CC3CN(C(=O)OC(C)(C)C)CCO3)c2)c1 (stereo not shown)
Result: ≥ 5.00

Query: # return recorded pIC50 for entry Cc1cccc(-c2cc(Cl)c(F)c(C(=O)NNS(=O)(=O)C3CCC(N)C3)c2)c1 (stereo not shown)
Result: < 4.00

I need pIC50 for every entry listed below, if you could help.
1. Cc1cccc(-c2cc(Cl)c(F)c(C(=O)NNS(=O)(=O)CC3CNCCN3C)c2)c1 (stereo not shown)
2. Cc1cccc(-c2cc(Cl)c(F)c(C(=O)NNS(=O)(=O)CC3CN(C)CCO3)c2)c1 (stereo not shown)
3. COc1cccc(S(=O)(=O)NNC(=O)c2cc(-c3ccccc3)cc(Cl)c2F)c1

Result:
1: < 4.00; 2: ≥ 5.00; 3: ≥ 6.00

----------
Molecular target: KAT-5 (Homo sapiens (Human))
Sequence (Q92993 other isoform, or with tags, fused parts or gaps): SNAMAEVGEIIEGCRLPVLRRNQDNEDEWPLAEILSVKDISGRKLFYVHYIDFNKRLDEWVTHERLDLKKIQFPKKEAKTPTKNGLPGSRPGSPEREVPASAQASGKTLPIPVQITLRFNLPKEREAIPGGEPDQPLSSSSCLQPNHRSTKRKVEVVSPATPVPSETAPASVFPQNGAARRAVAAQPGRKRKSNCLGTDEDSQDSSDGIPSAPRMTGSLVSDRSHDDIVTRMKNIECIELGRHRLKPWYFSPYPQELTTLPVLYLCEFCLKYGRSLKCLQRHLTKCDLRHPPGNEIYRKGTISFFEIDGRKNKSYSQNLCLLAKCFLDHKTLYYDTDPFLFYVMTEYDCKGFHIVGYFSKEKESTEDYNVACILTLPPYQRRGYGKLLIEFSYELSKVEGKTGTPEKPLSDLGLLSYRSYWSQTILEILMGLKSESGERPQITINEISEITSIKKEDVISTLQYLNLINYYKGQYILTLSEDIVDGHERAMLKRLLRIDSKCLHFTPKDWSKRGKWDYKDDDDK
Assay: KAT-5 biochemical inhibition assay (SAMDI mass spectrometry)
Quantity name: IC50

Query: # return recorded IC50 for entry CCNC(=O)N1CCC(C)C(CS(=O)(=O)NNC(=O)c2cc(-c3cn(C)cn3)cc(Cl)c2F)C1 (centres unmarked)
Result: < 10 µM

Query: # return recorded IC50 for entry CCNC(=O)N1[C@H]2CC[C@@H](CS(=O)(=O)NNC(=O)c3cc(-c4cn(C)cn4)cc(Cl)c3F)[C@@H]1CC2
Result: < 10 µM

Query: # return recorded IC50 for entry Cn1cnc(-c2cc(Cl)c(F)c(C(=O)NNS(=O)(=O)CC3CCCCO3)c2)c1 (centres unmarked)
Result: < 10 µM

Query: # return recorded IC50 for entry Cn1cnc(-c2cc(Cl)c(F)c(C(=O)NNS(=O)(=O)C[C@H]3C[C@H](NC(N)=O)C3)c2)c1
Result: 10 to 50 µM

Query: # return recorded IC50 for entry Cn1cnc(-c2cc(Cl)c(F)c(C(=O)NNS(=O)(=O)C[C@H]3CCC[C@H](NC(=O)OC(C)(C)C)C3)c2)c1
Result: < 10 µM

I need IC50 for every entry listed below, if you could help.
1. COc1ccc(S(=O)(=O)NNC(=O)c2cc(-c3cn(C)cn3)cc(Cl)c2F)c(F)c1OCc1ccccc1
2. COc1ccc(CN(C)C(=O)N2CC[C@H](CS(=O)(=O)NNC(=O)c3cc(-c4cn(C)cn4)cc(Cl)c3F)C2)cc1
3. Cn1cnc(-c2cc(Cl)c(F)c(C(=O)NNS(=O)(=O)CC3CC4CCC3C4)c2)c1 (centres unmarked)

Result:
1. 10 to 50 µM
2. < 10 µM
3. < 10 µM

I need IC50 for every entry listed below, if you could help.
1. Cn1cnc(-c2cc(Cl)c(F)c(C(=O)NNS(=O)(=O)C[C@H]3CC[C@H](NC(=O)c4ccncc4)CC3)c2)c1
2. COCCc1c(-c2cc(Cl)c(F)c(C(=O)NNS(=O)(=O)CC3CCOCC3)c2)cnn1C
3. Cn1cnc(-c2cc(Cl)c(F)c(C(=O)NNS(=O)(=O)CC3CCC(NC(=O)N4CCCC4)C3)c2)c1 (centres unmarked)
4. CCC1CC(CS(=O)(=O)NNC(=O)c2cc(-c3cn(C)cn3)cc(Cl)c2F)CC1=O (centres unmarked)

Result:
< 10 µM
10 to 50 µM
< 10 µM
10 to 50 µM

I need IC50 for every entry listed below, if you could help.
1. Cc1cnn(-c2cc(Cl)c(F)c(C(=O)NNS(=O)(=O)CC3CCOCC3)c2)c1
2. Cn1cnc(-c2cc(Cl)c(F)c(C(=O)NNS(=O)(=O)CC3CCN(C(=O)CCO)C3)c2)c1 (centres unmarked)

Result:
10 to 50 µM
10 to 50 µM
